Hey, just so you know, these numbers are from patent US20240360134A1.

- Target Entity: PDGFRβ (Rattus norvegicus (Rat), UniProt Q05030)
- Sequence (Q05030 whole entry, looked up): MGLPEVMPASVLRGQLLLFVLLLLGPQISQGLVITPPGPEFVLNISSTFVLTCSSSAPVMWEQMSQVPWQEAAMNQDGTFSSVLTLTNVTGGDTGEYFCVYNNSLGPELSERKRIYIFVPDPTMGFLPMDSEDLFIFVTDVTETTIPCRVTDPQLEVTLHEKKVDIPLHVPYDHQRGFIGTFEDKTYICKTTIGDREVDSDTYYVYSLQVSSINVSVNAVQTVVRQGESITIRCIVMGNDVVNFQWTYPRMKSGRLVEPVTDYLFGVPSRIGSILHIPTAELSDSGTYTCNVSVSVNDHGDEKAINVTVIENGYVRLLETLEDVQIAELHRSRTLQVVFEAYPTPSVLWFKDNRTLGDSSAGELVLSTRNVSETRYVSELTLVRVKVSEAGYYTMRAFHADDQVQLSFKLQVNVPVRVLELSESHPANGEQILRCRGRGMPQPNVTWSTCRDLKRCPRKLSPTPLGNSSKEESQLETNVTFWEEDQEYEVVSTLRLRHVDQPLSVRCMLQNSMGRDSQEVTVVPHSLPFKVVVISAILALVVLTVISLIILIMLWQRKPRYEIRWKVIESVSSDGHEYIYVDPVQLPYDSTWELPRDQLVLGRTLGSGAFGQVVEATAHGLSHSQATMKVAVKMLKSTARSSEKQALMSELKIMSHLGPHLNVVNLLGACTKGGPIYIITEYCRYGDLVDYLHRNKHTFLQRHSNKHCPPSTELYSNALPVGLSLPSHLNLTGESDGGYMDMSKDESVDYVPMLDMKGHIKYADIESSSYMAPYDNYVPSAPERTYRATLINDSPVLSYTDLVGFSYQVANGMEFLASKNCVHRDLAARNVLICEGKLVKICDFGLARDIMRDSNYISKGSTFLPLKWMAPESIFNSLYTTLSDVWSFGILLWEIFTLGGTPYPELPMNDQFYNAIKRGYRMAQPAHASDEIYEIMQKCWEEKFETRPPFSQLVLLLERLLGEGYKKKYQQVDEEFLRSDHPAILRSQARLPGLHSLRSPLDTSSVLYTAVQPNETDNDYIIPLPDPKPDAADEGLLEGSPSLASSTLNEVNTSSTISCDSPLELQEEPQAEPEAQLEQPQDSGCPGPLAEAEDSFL
- Assay Details: PDGFRβ Cellular Assay (PDGFRb P-Y751 HTRF, PDGF-BB stimulated A10 cells)
- Type: cell-based
- Cond: A10 cells, 3 hours compound, 15 ng/mL PDGFbb for 10 minutes; read-out: PDGFR Cellular IC50
pIC50: −log10 of the molar value.
Yes means recorded pIC50 is 8 or above; No means it is below 8.

>  <Smiles Text>
COCCn1cc(Nc2ncc3c(Nc4cc(NC(=O)CN5CCCC56CCC6)cnc4C)nn(C)c3n2)cn1

>  <Classification>
Yes

$$$$
>  <Smiles Text>
Cc1ncc(NC(=O)CN2CCC[C@@H]2C)cc1Nc1nn(C)c2nc(Nc3cnn(C4COC4)c3)ncc12

>  <Classification>
Yes

$$$$
>  <Smiles Text>
Cc1ncc(NC(=O)CN2CCCC2(C)C)cc1Nc1nn(C)c2nc(Nc3cnn(C)c3)ncc12

>  <Classification>
Yes

$$$$
>  <Smiles Text>
COCCn1cc(Nc2ncc3c(Nc4cc(NC(=O)CN5CCCC5(C)C)cnc4C)nn(C)c3n2)cn1

>  <Classification>
Yes

$$$$
>  <Smiles Text>
Cc1ncc(C(=O)NCCN2CC3CCC2CC3)cc1Nc1nn(C)c2nc(Nc3cncnc3)ncc12

>  <Classification>
No

$$$$
>  <Smiles Text>
Cc1ncc(C(=O)NCCN2[C@H](C)CCC[C@@H]2C)cc1Nc1nn(C)c2nc(Nc3cncnc3)ncc12

>  <Classification>
No

$$$$
>  <Smiles Text>
Cc1ncc(C(=O)NCCN(C(C)C)C(C)C)cc1Nc1nn(C)c2nc(Nc3cncnc3)ncc12

>  <Classification>
No

$$$$
>  <Smiles Text>
Cc1nn(C)cc1Nc1ncc2c(Nc3cc(C(=O)NCCN4CCCC4(C)C)cnc3C)nn(C)c2n1

>  <Classification>
No

$$$$
>  <Smiles Text>
Cc1ncc(C(=O)NCCN2CCCC(F)(F)C2)cc1Nc1nn(C)c2nc(Nc3cncnc3)ncc12

>  <Classification>
No

$$$$
>  <Smiles Text>
Cc1cc(C(=O)NCCN2CCCOCC2)sc1Nc1nn(C)c2nc(Nc3cnn(C)c3)ncc12

>  <Classification>
No

$$$$
>  <Smiles Text>
CC[C@@H]1CN(CCNC(=O)c2cnc(C)c(Nc3nn(C)c4nc(Nc5ccnc(N6CCC(CCO)CC6)c5)ncc34)c2)CCO1

>  <Classification>
No

$$$$
>  <Smiles Text>
Cc1ncc(C(=O)NCCN2CCCC2(C)C)cc1Nc1nn(C)c2nc(Nc3cccnc3)ncc12

>  <Classification>
No

$$$$
>  <Smiles Text>
Cc1ncc(C(=O)NCCN2CCCC[C@@H]2C)cc1Nc1nn(C)c2nc(Nc3cncnc3)ncc12

>  <Classification>
No

$$$$
>  <Smiles Text>
Cc1ncc(C(=O)NCCN2CCC[C@@H]2C)cc1Nc1nn(C)c2nc(Nc3cnn(C)c3C)ncc12

>  <Classification>
No

$$$$
>  <Smiles Text>
Cc1ncc(C(=O)NCCN2CCC(C)(C)C2)cc1Nc1nn(C)c2nc(Nc3cnn(C)c3)ncc12

>  <Classification>
No

$$$$
>  <Smiles Text>
Cc1ncc(C(=O)NCCN2CC(C)(C)C2)cc1Nc1nn(C)c2nc(Nc3cncnc3)ncc12

>  <Classification>
No

$$$$
>  <Smiles Text>
Cc1cc(Nc2ncc3c(Nc4cc(C(=O)NCCN5CCC[C@@H]5C)cnc4C)nn(C)c3n2)n(C)n1

>  <Classification>
No

$$$$
>  <Smiles Text>
COC(=O)C1(c2cccc(Nc3ncc4c(Nc5cc(C(=O)NCCN6CCCC6(C)C)cnc5C)nn(C)c4n3)c2)CC1

>  <Classification>
No

$$$$
>  <Smiles Text>
Cc1ccc(C(=O)NCCN2CCCC2(C)C)cc1Nc1nn(C)c2nc(Nc3cnn(C)c3)ncc12

>  <Classification>
Yes

$$$$
>  <Smiles Text>
Cc1ncc(C(=O)NCCN(C)C2CCOCC2)cc1Nc1nn(C)c2nc(Nc3cncnc3)ncc12

>  <Classification>
No

$$$$
>  <Smiles Text>
CC(=O)Nc1cc(Nc2ncc3c(Nc4cc(C(=O)NCCN5CCCC5(C)C)cnc4C)nn(C)c3n2)ccn1

>  <Classification>
No

$$$$
>  <Smiles Text>
Cc1ncc(NC(=O)CN2CCC3(CC3)C2)cc1Nc1nn(C)c2nc(Nc3cnn(C)c3)ncc12

>  <Classification>
Yes

$$$$
>  <Smiles Text>
CC[C@@H]1CN(CCNC(=O)c2cnc(C)c(Nc3nn(C)c4nc(Nc5cnn(C)c5)ncc34)c2)CCO1

>  <Classification>
No

$$$$
>  <Smiles Text>
Cc1ncc(C(=O)NCCN2CCCCC23CC3)cc1Nc1nn(C)c2nc(Nc3cnn(C)c3)ncc12

>  <Classification>
Yes

$$$$
